The reported numbers originate from ChEMBL document CHEMBL3867470.

- Assay Comment: Antiproliferative activity against human A2780 cells measured after 72 hrs by MTT assay
- Format: functional
- Condition Description: A2780, 72 h
Measured Parameter: GI50 (µM)
Number only, in µM; omit the unit.

Sample answers from the record:
{"Smiles Repr": "CNc1ncc(OC)c(CS(=O)(=O)/C=C/c2c(OC)cc(OC)cc2OC)n1", "Unit Descriptor": "µM", "GI50": 7.54}
{"Smiles Repr": "CCOc1cc(OC)cc(OC)c1/C=C/S(=O)(=O)Nc1ccc(OC)nc1", "Unit Descriptor": "µM", "GI50": 0.47}

get_value(item= COc1cc(OC)c(/C=C/S(=O)(=O)Nc2ccc(Cl)nc2)c(OC)c1 , readout=GI50) returns 2.6
